Biological target: P2X7 receptor (Homo sapiens, UniProt Q99572)
Construct: stably expressing the full length P2X7 receptor
Sequence (Q99572 whole entry): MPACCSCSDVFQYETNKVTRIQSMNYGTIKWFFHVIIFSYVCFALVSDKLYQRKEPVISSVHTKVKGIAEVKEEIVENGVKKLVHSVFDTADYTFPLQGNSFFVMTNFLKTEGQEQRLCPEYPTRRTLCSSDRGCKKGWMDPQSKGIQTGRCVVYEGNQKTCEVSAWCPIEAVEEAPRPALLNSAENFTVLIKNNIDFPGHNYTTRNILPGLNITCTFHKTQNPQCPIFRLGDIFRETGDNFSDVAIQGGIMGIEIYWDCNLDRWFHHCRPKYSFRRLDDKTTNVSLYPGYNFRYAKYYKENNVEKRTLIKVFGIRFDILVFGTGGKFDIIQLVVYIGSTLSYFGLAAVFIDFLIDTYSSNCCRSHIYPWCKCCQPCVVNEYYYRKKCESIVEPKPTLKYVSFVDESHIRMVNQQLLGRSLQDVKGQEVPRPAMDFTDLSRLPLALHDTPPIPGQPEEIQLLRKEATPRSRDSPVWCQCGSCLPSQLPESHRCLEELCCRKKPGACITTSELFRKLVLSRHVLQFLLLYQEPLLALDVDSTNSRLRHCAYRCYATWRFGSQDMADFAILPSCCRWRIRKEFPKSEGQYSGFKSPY
Assay: Ca++ flux assay (FLIPR) in P2X7-HEK-293 cell line stably expressing the full length P2X7 receptor, Bz-ATP activation
Details: P2X7-HEK-293 cells; agonist Bz-ATP; fluorescence as total area over 90 seconds; read-out: P2X7 Ca Flux hu IC50
For each entry below, report its pIC50 value.
Quick note: pIC50 values are minus log10 of concentrations in mol/L.

Query :: Any idea what pIC50 was measured for Cc1c(Cl)cccc1-n1ccn2c(S(=O)(=O)Cc3ccccc3Cl)nnc2c1=O ?
Result :: 7.63

Query :: Further, for Cc1c(-n2ccn3c(SCc4ccccc4-c4ccc(C(F)(F)F)cc4)nnc3c2=O)cccc1C(F)(F)F ?
Result :: 6.04

Query :: Would you kindly repeat that for Cc1c(Cl)cccc1-n1ccn2c(SCc3ccc4ccccc4c3)nnc2c1=O ?
Result :: 5.64

Query :: What about CCc1ccccc1CSc1nnc2c(=O)n(-c3cccc(Cl)c3C)ccn12 ?
Result :: 6.67

Query :: Another compound: [2H]c1c([2H])c([2H])c(CS(=O)(=O)c2nnc3c(=O)n(-c4cccc(Cl)c4C)ccn23)c([2H])c1[2H]
Result :: 7.40

Query :: Do the same for Cc1c(-n2ccn3c(SCc4ccccc4C(C)(C)C)nnc3c2=O)cccc1C(F)(F)F please
Result :: 7.24

Query :: Next up: Cc1c(Cl)cccc1-n1ccn2c(SCc3cc(F)cc(F)c3)nnc2c1=O
Result :: 6.16

Query :: Entry to check: Cc1c(Cl)cccc1-n1ccn2c(SCc3c(Cl)cccc3Cl)nnc2c1=O
Result :: 6.55

Query :: Similarly, Cc1c(Cl)cccc1-n1ccn2c(SCc3cccc(Cl)c3F)nnc2c1=O ?
Result :: 5.60

Query :: Same read-out for Cc1c(Cl)cccc1-n1ccn2c(S(=O)(=O)Cc3ccccc3)nnc2c1=O ?
Result :: 7.50

Query :: # repeat for Cc1c(Cl)cccc1-n1ccn2c(SCc3ccccc3B(O)O)nnc2c1=O
Result :: 6.00

Query :: Ok, now Cc1c(Cl)cccc1-n1ccn2c([S+]([O-])Cc3cc(Cl)cc(Cl)c3)nnc2c1=O (stereo not drawn)
Result :: 6.47

Query :: Same thing, different compound: Cc1c(Cl)cccc1-n1ccn2c(SCC(=O)OC(C)(C)C)nnc2c1=O
Result :: 5.74

Query :: What would you report for Cc1onc(-c2ccccc2)c1CS(=O)(=O)c1nnc2c(=O)n(-c3cccc(C(F)(F)F)c3C)ccn12 ?
Result :: 6.55

Query :: Entry to check: Cc1c(Cl)cccc1-n1ccn2c(SCc3ccccc3CCc3ccccc3)nnc2c1=O
Result :: 6.26

Query :: Cool, now O=c1c2nnc(SCc3ccccc3)n2ccn1-c1cccc2ccccc12
Result :: 5.44

Query :: Also need Cc1c(Cl)cccc1-n1ccn2c(SCc3ccccc3Oc3ccccc3)nnc2c1=O , thanks.
Result :: 7.17

Query :: Can you handle Cc1c(Br)cccc1-n1ccn2c(SCc3ccccc3)nnc2c1=O next?
Result :: 6.60

Query :: Can you handle Cc1c(-n2ccn3c(SCc4ccccc4F)nnc3c2=O)cccc1C(F)(F)F next?
Result :: 6.78

Query :: Also check Cc1c(-n2ccn3c(S(=O)(=O)Cc4cccc(F)c4Cl)nnc3c2=O)cccc1C(F)(F)F
Result :: 7.84

Query :: Query [2H]c1c([2H])c([2H])c(C([2H])([2H])S(=O)(=O)c2nnc3c(=O)n(-c4cccc(Cl)c4C)ccn23)c([2H])c1[2H] next
Result :: 7.50

Query :: Please answer likewise for Cc1c(-n2ccn3c(SCc4ccccc4-c4cccs4)nnc3c2=O)cccc1C(F)(F)F
Result :: 7.39

Query :: Then this compound: O=c1c2nnc(SCc3ccccc3)n2ccn1-c1ccccc1Cl
Result :: 6.02

Query :: Ok, now Cc1c(Cl)cccc1-n1ccn2c(SCc3ccccc3-c3cccs3)nnc2c1=O
Result :: 7.34

Query :: What do you have for Cc1ccc(-c2ccccc2CSc2nnc3c(=O)n(-c4cccc(C(F)(F)F)c4C)ccn23)s1 ?
Result :: 7.43

Query :: Same lookup for [2H]c1c([2H])c([2H])c(CSc2nnc3c(=O)n(-c4cccc(Cl)c4C)ccn23)c([2H])c1[2H] , please.
Result :: 7.07

Query :: # iterate: O=c1c2nnc(SCc3ccccc3)n2ccn1-c1ccc(Cl)c(Cl)c1
Result :: 5.41

Query :: Subsequent entry: Cc1c(-n2ccn3c(S(=O)(=O)Cc4ccccc4-c4ccccc4)nnc3c2=O)cccc1C(F)(F)F [Compound 149]
Result :: 7.32

Query :: What do you get for Cc1c(Cl)cccc1-n1ccn2c(SCc3ccccc3N3CCOCC3)nnc2c1=O ?
Result :: 6.26

Query :: Item: Cc1c(Cl)cccc1-n1ccn2c(SCc3cc(Cl)ccc3Cl)nnc2c1=O
Result :: 5.50

Query :: And then COc1ccc(CSc2nnc3c(=O)n(-c4cccc(Cl)c4C)ccn23)cc1 , what is it?
Result :: 5.25

Query :: Now try Cc1c(-n2ccn3c(S(=O)(=O)Cc4ccccc4-c4ccc(Cl)cc4)nnc3c2=O)cccc1C(F)(F)F .
Result :: 8.16

Query :: # iterate: [2H]c1c([2H])c([2H])c(C([2H])([2H])Sc2nnc3c(=O)n(-c4cccc(Cl)c4C)ccn23)c([2H])c1[2H]
Result :: 6.83

Source: patent US20130196986A1
